tested on: B. infantis M-63; assay: Bacterial growth assay (OD600); format: cell-based, Bifidobacterium infantis; conditions: 1% carbohydrate in sMRS+cysteine
Measure Name: growth / ability to ferment (OD600)

Compound: CC(=O)N[C@H]1C([C@H](O)[C@H](O)CO)O[C@@](OCC2O[C@@H](O[C@@H]3C(CO)OC(O)C(O)[C@H]3O)C(O)[C@@H](O)[C@H]2O)(C(=O)[O-])C[C@H]1O.[Na+] (stereo in doubt)
Measure Name: growth / ability to ferment (OD600)
Reported Result: able to ferment

Compound: CC(=O)N[C@H]1[C@H]([C@H](O)[C@H](O)CO)O[C@@](O[C@H]2[C@@H](O)[C@@H](CO)O[C@@H](O[C@H]3[C@H](O)[C@@H](O)C(O)O[C@@H]3CO)[C@@H]2O)(C(=O)O)C[C@@H]1O (stereo partly shown)
Measure Name: growth / ability to ferment (OD600)
Reported Result: able to ferment
